ASSAY TARGET: Cytochrome P450 2C19 (Homo sapiens)
EXPERIMENT NOTES: Cytochrome panel assay with activity outcomes
CONDITION INFO: recombinant CYP, pro-luciferin dealkylation, luminescence, p450-cyp2c19; series mostly up to 57.1 µM
In all, about 16,000 compounds went through this assay and about 5,800 (36%) were called active. Roughly 23% stayed inconclusive and do not appear here. The call rests on the fitted dose curve; in most records, active means well fitted curve in the direction sought with a large enough effect; inconclusive means small, poorly fitted or top-dose-only effect, or effect the other way; inactive means no such curve, though single readings can be large or run the other way. Some of the results follow.
Possible outcomes: Y (active), N (inactive)

O=C(Cc1ccc(Br)cc1)OCC(=O)c1ccc2c(c1)OCCO2    Y
Cc1c(Br)cc(C(=O)NC2CCCCC2)c(C)c1C    Y
COC(=O)N1CCC2(CCCN(Cc3ccccc3)C2)CC1    N
O=C(c1cccc(F)c1)N1CCC[C@@]2(CCN(C(c3ccccc3)c3ccccc3)C2)C1    N
COc1nc(C)nc(Cl)c1NC1=NCCN1    N
Cc1ccc(C(=O)NC2CCCCCC2)cc1N1CCCC1=O    N

----------
ASSAY TARGET: Cytochrome P450 2C19 (Homo sapiens) (UniProt P33261)
Sequence (P33261 whole entry, looked up): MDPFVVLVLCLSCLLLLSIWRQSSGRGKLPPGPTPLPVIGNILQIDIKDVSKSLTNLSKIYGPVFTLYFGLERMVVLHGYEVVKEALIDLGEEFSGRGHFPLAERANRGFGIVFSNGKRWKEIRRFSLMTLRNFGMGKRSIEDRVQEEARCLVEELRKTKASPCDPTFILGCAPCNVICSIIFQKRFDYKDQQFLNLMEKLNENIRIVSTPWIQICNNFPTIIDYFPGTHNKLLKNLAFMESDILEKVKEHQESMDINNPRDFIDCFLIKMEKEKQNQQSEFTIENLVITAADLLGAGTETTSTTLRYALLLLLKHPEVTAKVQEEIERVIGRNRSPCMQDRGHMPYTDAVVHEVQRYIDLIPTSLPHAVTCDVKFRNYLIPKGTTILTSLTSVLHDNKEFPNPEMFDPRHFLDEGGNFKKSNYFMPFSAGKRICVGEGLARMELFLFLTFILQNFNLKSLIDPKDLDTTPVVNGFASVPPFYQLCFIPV
EXPERIMENT NOTES: Cytochrome panel assay with activity outcomes
CONDITION INFO: recombinant CYP, pro-luciferin dealkylation, luminescence, p450-cyp2c19; series mostly up to 57.1 µM
Among all 16,000 compounds or so, about 5,800 (36%) were called active. About 23% were inconclusive and are not listed. The call rests on the fitted dose curve; in most records, active means well fitted curve in the direction sought with a large enough effect; inconclusive means small, poorly fitted or top-dose-only effect, or effect the other way; inactive means no such curve, though single readings can be large or run the other way. The list shows a part of the results.
Possible outcomes: 1 (active), 0 (inactive)

CCOc1ccccc1NC(=O)C1Cc2ccccc2CN1S(C)(=O)=O (stereo unspecified)    1
CS(=O)(=O)c1cnc2c(-c3ccc(F)cc3)cnn2c1N    0
Cc1cc(C)nc(NS(=O)(=O)c2ccc(N)cc2)n1    0
COc1ccc(Oc2nc(C)cc(C)c2S(=O)(=O)c2ccc(C)cc2)cc1    1
CC(C)(C)S(=O)(=O)c1cnc2c(-c3ccc(F)cc3)cnn2c1N    1
Cc1sc2ccccc2[n+]1CCC(C)S(=O)(=O)[O-] (stereo unspecified)    0

----------
ASSAY TARGET: Cytochrome P450 2C19 (Homo sapiens)
EXPERIMENT NOTES: Cytochrome panel assay with activity outcomes
CONDITION INFO: recombinant CYP, pro-luciferin dealkylation, luminescence, p450-cyp2c19; series mostly up to 57.1 µM
Screen size: about 16,000 compounds; about 5,800 (36%) were called active. Inconclusive results (about 23%) are left out. This is one part of the list.
ENDPOINT: AC50

COc1ccc(Nc2cc(=O)n(C3CCCCC3)c(=O)[nH]2)c(OC)c1    10 µM (active)
CCCCC[C@H](O)c1cccc(OCc2ccc3ccccc3n2)c1    6.31 µM (active)
Cc1ccc(C)c(Nc2nc3nonc3nc2N2CCOCC2)c1    25.1 µM (active)
c1ccc(-c2nc(-c3cccs3)[nH]c2-c2ccccc2)cc1    6.31 µM (active)
CCCCOC1(c2ccccc2)OC(=O)c2ccccc21 (stereo unspecified)    6.31 µM (active)
CCCCCCCOC1(c2ccccc2)OC(=O)c2ccccc21 (stereo unspecified)    3.55 µM (active)
O=C(O)c1ccccc1Nc1cccc(OCc2ccc3ccccc3n2)c1    5.01 µM (active)
COc1cccc(Nc2ncc3ncc(=O)n(C4CC4)c3n2)c1    inactive
CN1C(=O)C(CC(N)=O)N(NC(=O)c2ccc(Cl)cc2)C1=S (stereo unspecified)    inactive
COc1cccc(Nc2ncc3nc(-c4ccc(Cl)cc4)c(=O)n(C4CC4)c3n2)c1    inactive
COc1ccc(-c2nc(-c3ccccc3)c(-c3cc([N+](=O)[O-])ccc3C)[nH]2)cc1O    8.91 µM (active)

----------
ASSAY TARGET: Cytochrome P450 2C19 (Homo sapiens) (UniProt P33261)
EXPERIMENT NOTES: Cytochrome panel assay with activity outcomes
CONDITION INFO: recombinant CYP, pro-luciferin dealkylation, luminescence, p450-cyp2c19; series mostly up to 57.1 µM
Hit rate of the full screen: of about 16,000 compounds, about 5,800 (36%) were called active. Inconclusive results (about 23%) are left out. Calls come from the whole dose curve; as a rule, active = well fitted curve in the direction sought with a large enough effect; inconclusive = small, poorly fitted or top-dose-only effect, or effect the other way; inactive = no such curve, though single readings can be large or run the other way. Some of the results follow.
Possible outcomes: true = active, false = inactive

O=C(O)C1=CCNCC1    false
COC(=O)N1CC(=O)N(OC)C1c1ccc(Cl)cc1Cl (stereo unspecified)    true
N=C(c1ccc2ccccc2c1)c1ccccc1Cc1ccccc1    true
CC(C)(C)c1nc(SCC(=O)Nc2ccc3c(c2)OCCO3)c2ccccc2n1    true
CC(C)(C)c1nc(SCC(=O)Nc2ccc(N3CCOCC3)cc2)c2ccccc2n1    true
O=C(CSc1nncn1-c1ccccc1)Nc1ccc(N2CCOCC2)cc1    false
Cc1cccc(NC(=O)NNC(=O)c2cc(-c3ccccc3Cl)nc3ccccc23)c1    true
Cc1nc(SCC(=O)Nc2ccc3c(c2)OCCO3)c2oc3ccccc3c2n1    true
COc1cccc(-c2nnc3n2N=C(C(C)(C)C)CS3)c1    true
CC(C)N(CCC(=O)c1ccc2ccccc2c1)Cc1ccccc1    false
O=C(NNC(=O)c1cc(-c2ccc(Cl)c(Cl)c2)nc2ccccc12)Nc1ccccc1    true

----------
ASSAY TARGET: Cytochrome P450 2C19 (Homo sapiens) (UniProt P33261)
EXPERIMENT NOTES: Cytochrome panel assay with activity outcomes
CONDITION INFO: recombinant CYP, pro-luciferin dealkylation, luminescence, p450-cyp2c19; series mostly up to 57.1 µM
The whole screen tested about 16,000 compounds, of which about 5,800 (36%) were called active. Roughly 23% stayed inconclusive and do not appear here. Calls follow the shape of the dose curve; as a rule, active = well fitted curve in the direction sought with a large enough effect; inconclusive = small, poorly fitted or top-dose-only effect, or effect the other way; inactive = no such curve, though single readings can be large or run the other way. Some of the results follow.
Possible outcomes: yes for active, no for inactive

FC(F)(F)c1ccccc1-n1ccnc1    no
N#Cc1c(-n2ccnc2)cccc1-n1ccnc1    yes
Cc1cc(=O)oc(C)c1C(=O)N1CCCCC1    yes
CSc1nc(N)c2ncn([C@@H]3O[C@@H](COP(=O)(O)OP(=O)(O)O)[C@@H](O)[C@H]3O)c2n1    no
COc1ccc(-c2cc(C(F)(F)F)n3nc(C(=O)N4CCCCC4)cc3n2)cc1    yes
CCCCCN=c1ccn(Cc2ccccc2)c2ccccc12    yes
Clc1ccccc1-c1cc(NCc2ccccc2)ncn1    yes
CCN(CC)CCOC(=O)c1cc(Cl)c(N)cc1OC    no
O=C(OCC#CCSc1nnc(-c2cccc3ccccc23)o1)c1ccco1    yes
O=C1C(=O)c2ccccc2C(O)=C1C(C1=C(O)c2ccccc2C(=O)C1=O)c1ccc(Cl)cc1    yes
Cc1ccc(Nc2ccc(-n3ccnc3)nn2)cc1C    yes
COc1ccc(C2/C(=C(/O)c3ccccc3)C(=O)C(=O)N2c2ccccn2)c(OC)c1 (stereo not given)    no
CCOC(=O)CSC1=NC(=O)/C(=C\c2ccc(OC(C)=O)cc2)S1    yes
COc1ccc(-c2nc3cnc(Nc4ccccc4)nc3n(CCC#N)c2=O)cc1    no
O=C(c1ccccc1)c1nc2ccccc2n(CCCn2c(=O)c(C(=O)c3ccccc3)nc3ccccc32)c1=O    yes
O=C(N/N=C/c1cccc(OC2CSC2)c1)c1ccccc1O    no
CCOc1ccccc1OCCOc1ccc(F)cc1    yes
O=C(NCc1ccccn1)c1cc(-c2ccccc2Cl)on1    yes
COc1ccc(-c2cc3ccccc3n2CC(O)CNCCO)cc1 (stereo not given)    yes
COc1ccc(-n2c(=O)c(C)nc3cnc(Nc4ccccc4)nc32)cc1    no
COc1ccc(NC(=O)N2CCCC3(CCN(C(=O)c4cc(C(F)(F)F)cc(C(F)(F)F)c4)CC3)C2)cc1    no
CCCn1c(CC)nc([N+](=O)[O-])c1S(=O)(=O)c1ccccc1    yes
CCc1cc(C(c2ccccc2OC)N2CCOCC2)c(NC(=O)c2ccccc2)s1 (stereo not given)    yes
N[C@H](C(=O)O)c1cccc(O)c1    no
O=c1[nH][nH]c(C(F)(F)F)c1C=Nc1ccccc1Cl    no
CCOC(=O)C1CCCN(C(=O)c2cc3nc(-c4ccc5c(c4)OCO5)cc(C(F)(F)F)n3n2)C1 (stereo not given)    yes
CC(=O)Nc1ccc(NC2=Nc3ccccc3N3C2=Nc2c(c(C)nn2-c2ccccc2)C3c2ccccc2)cc1 (stereo not given)    yes
COc1ccc2[nH]cc(CCNc3nc(-c4ccccc4OC)nc4ccccc34)c2c1    yes
O=C(Nc1cccnc1Cl)C1c2ccccc2Oc2ccccc21    yes
COc1cccc(-c2nc(NCCc3c[nH]c4ccc(OC)cc34)c3ccccc3n2)c1    yes
CCOC(=O)c1cnc2c(cnn2CC)c1NN=C(C)C    no
Cc1c(C(=O)O)oc2ccc(S(=O)(=O)NCc3ccc4c(c3)OCO4)cc12    no
Cc1cccc2sc(NC(=O)C3c4ccccc4Oc4ccccc43)nc12    yes
O=C1C(=O)N(c2cccc(Cl)c2)C(c2ccccc2[N+](=O)[O-])/C1=C(\O)c1ccccc1 (stereo not given)    yes
Cc1cccc(CNc2cc(-c3ccccc3Cl)ncn2)c1    yes
CC(=O)NC(NC(C)=O)c1ccc(Br)cc1    no
CCCCCn1c(=O)c(C(=O)c2ccccc2)nc2ccccc21    yes
COc1ccc2[nH]cc(CCNc3nc(-c4cccnc4)nc4ccccc34)c2c1    yes
COc1ccc2c(Cl)c(-c3nnco3)sc2c1    yes
CC(=O)Nc1nnc(SCc2ccc(F)cc2)s1    yes
CCOC(=O)c1ccc2nc(C)c(CCC(C)=O)c(Cl)c2c1    yes
COc1ccc(-c2nnn(CC(=O)NCCc3c[nH]c4ccccc34)n2)cc1OC    yes
Cc1nn(-c2ccccc2)c2c1C(c1ccc(O)c(O)c1)N1C(=N2)C(Nc2ccccc2)=Nc2ccccc21 (stereo not given)    yes
COc1ccc(-n2c(=O)c(-c3cccs3)nc3cnc(Nc4cccc(OC)c4)nc32)cc1    no
CCCNC(=O)c1c(C)cc(=O)oc1C    no
